Provenance of the data: the supplement of paper PMC10567573

B1: SNAP91 (parent)
chain: FATASAAVPVSTSKPSSDLLDLQP

Variants of: B1
Experiment: protein stability index of a GFP-peptide fusion (GPS, HEK-293T) (PSI 1-6); higher = more stable;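 note: lentivirally expressed fusions sorted by FACS into six bins by GFP to DsRed ratio, PSI derived from sequencing read proportions per bin multiplied by bin number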
Conditions: c terminus: a fixed tail appended
// reported protein stability index for each item listed
MEASURED METRIC: protein stability index

CHANGES: A4Q
MEASURED METRIC: protein stability index
OBSERVED RESULT: 3.9

CHANGES: V8E
MEASURED METRIC: protein stability index
OBSERVED RESULT: 3.99

CHANGES: L20A
MEASURED METRIC: protein stability index
OBSERVED RESULT: 4

CHANGES: L22G
MEASURED METRIC: protein stability index
OBSERVED RESULT: 3.93

CHANGES: D18A
MEASURED METRIC: protein stability index
OBSERVED RESULT: 3.44

CHANGES: L20V
MEASURED METRIC: protein stability index
OBSERVED RESULT: 4.12

CHANGES: L22Q
MEASURED METRIC: protein stability index
OBSERVED RESULT: 4.3

CHANGES: P24N
MEASURED METRIC: protein stability index
OBSERVED RESULT: 3.43

CHANGES: A4T
MEASURED METRIC: protein stability index
OBSERVED RESULT: 3.72

CHANGES: L19V
MEASURED METRIC: protein stability index
OBSERVED RESULT: 3.95

CHANGES: A7L
MEASURED METRIC: protein stability index
OBSERVED RESULT: 2.93

CHANGES: L22N
MEASURED METRIC: protein stability index
OBSERVED RESULT: 4.4

CHANGES: T3C
MEASURED METRIC: protein stability index
OBSERVED RESULT: 3.45

CHANGES: V10G
MEASURED METRIC: protein stability index
OBSERVED RESULT: 3.37

CHANGES: V10K
MEASURED METRIC: protein stability index
OBSERVED RESULT: 4.04

CHANGES: P24Y
MEASURED METRIC: protein stability index
OBSERVED RESULT: 3.27

CHANGES: S13L
MEASURED METRIC: protein stability index
OBSERVED RESULT: 3.09

CHANGES: S17N
MEASURED METRIC: protein stability index
OBSERVED RESULT: 3.85

CHANGES: Q23V
MEASURED METRIC: protein stability index
OBSERVED RESULT: 3.4

CHANGES: D21M
MEASURED METRIC: protein stability index
OBSERVED RESULT: 3.23

CHANGES: S5H
MEASURED METRIC: protein stability index
OBSERVED RESULT: 3.33

CHANGES: S16Q
MEASURED METRIC: protein stability index
OBSERVED RESULT: 3.93

CHANGES: K14H
MEASURED METRIC: protein stability index
OBSERVED RESULT: 3.58

CHANGES: A2T
MEASURED METRIC: protein stability index
OBSERVED RESULT: 3.18

CHANGES: L22K
MEASURED METRIC: protein stability index
OBSERVED RESULT: 4.16

CHANGES: P15K
MEASURED METRIC: protein stability index
OBSERVED RESULT: 3.57
